Tested on: Calu-3
Experiment: cell viability relative to DMSO; higher = less toxic
Conditions: 72 h; 100 nM
OBSERVABLE: cell viability

MOLECULE	OBSERVABLE	EXPERIMENTAL_VALUE
O=C1Nc2ccccc2C12OCC1(CO2)COC2(OC1)C(=O)Nc1ccccc12 (centres undefined)	cell viability	103%
CC1(C)O[C@H]2CC(=O)OC[C@]23[C@H]2CC[C@@]4(C)[C@H](c5ccoc5)OC(=O)[C@H]5O[C@]54[C@]2(C)C(=O)C[C@@H]13	cell viability	109%
C[C@@H]1C[C@H]2[C@@H]3CCC4=CC(=O)C=C[C@]4(C)[C@@]3(F)[C@@H](O)C[C@]2(C)[C@@]1(O)C(=O)COP(=O)(O)O [DEXAMETHASONE SODIUM PHOSPHATE]	cell viability	89.9%
CN(C)CCOC(C)(c1ccccc1)c1ccccn1 (centres undefined)	cell viability	98.6%

Where these numbers come from: the supplement of paper PMC13380429
